target: Adenosine receptor A3 (Homo sapiens); test: Antagonist activity at human cloned adenosine A3 receptor expressed in CHO cells assessed as inhibition of […] after 15 mins
Sequence (P0DMS8 whole entry): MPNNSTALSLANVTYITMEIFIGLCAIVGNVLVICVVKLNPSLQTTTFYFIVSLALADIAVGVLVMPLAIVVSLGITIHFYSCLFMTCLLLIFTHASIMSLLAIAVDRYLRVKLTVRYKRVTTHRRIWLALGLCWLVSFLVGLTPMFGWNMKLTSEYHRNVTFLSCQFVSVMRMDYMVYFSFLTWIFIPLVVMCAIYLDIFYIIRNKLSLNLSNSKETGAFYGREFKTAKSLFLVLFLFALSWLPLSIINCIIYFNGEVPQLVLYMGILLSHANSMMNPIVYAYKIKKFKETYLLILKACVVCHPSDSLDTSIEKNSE
value kind: IC50 (nM)

| smiles representation | IC50, nM |
| --- | --- |
| COc1ccccc1NC(=O)Nc1nn(-c2ccccc2)c(=O)c2ccccc12 | 17 |
| COc1ccc(OC)c(NC(=O)Nc2nn(-c3ccccc3)c(=O)c3ccccc23)c1 | 8.25 |
| O=C(NCc1ccccc1)Nc1nn(-c2ccccc2)c(=O)c2ccccc12 | 1.15 |

[P] COc1ccc(NC(=O)Nc2nn(-c3ccccc3)c(=O)c3ccccc23)cc1
[Q] COc1cccc(NC(=O)Nc2nn(-c3ccccc3)c(=O)c3ccccc23)c1
Task item: For the pair P and Q , which member has the lower IC50 number? Answer by stating the label of the chosen item.
Reply: Q

Hey, just so you know, these numbers are from ChEMBL document CHEMBL1764987.
